- target of assay: NKp30 on human NK cells (human) (UniProt O14931)
- Sequence (O14931 19-201): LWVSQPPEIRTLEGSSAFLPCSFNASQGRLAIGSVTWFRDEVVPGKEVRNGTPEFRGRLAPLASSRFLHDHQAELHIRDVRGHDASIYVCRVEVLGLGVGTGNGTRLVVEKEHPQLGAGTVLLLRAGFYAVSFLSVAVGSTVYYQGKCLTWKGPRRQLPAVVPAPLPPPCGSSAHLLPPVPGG
- experimental details: cell-based or functional assay
EC50 improvement compared to ΔB7-H6 wt reference
Give just the numeric value; fold need not be written.

Example cases with answers are listed next.
ΔB7-H6_S3#12-SEED-PGLALA (bispecific antibody, part only; not given: SEED Fc chains and hu225 Fab, part only) chain, part: DLKVEMMAGGTQITPLNDNVTIFCNIFYSQPLNITEMGITWFWKSLTFDKEVKVFEFFGDHQEAFRPGAIVSPWRLKSGDASLRLPGIQLEEAGEYRCEVVVTPYKAQGTVQLEVVASPAS : 5
ΔB7-H6_S3#24-SEED-PGLALA (bispecific antibody, part only; not given: SEED Fc chains and hu225 Fab, part only) chain, part: DLKVEMMAGGTQITPLNDNVTIFCNIFYSQPLNITIMGITWFWKSLTFDKEVKVFEFYGDHQEAFRPGAIVSPWRLKSGDASLRLPGIQLEEAGEYRCEVVVTPYKAQGTVQLEVVASPAS : 93
ΔB7-H6_S3#5-SEED-PGLALA (bispecific antibody, part only; not given: SEED Fc chains and hu225 Fab, part only) chain, part: DLKVEMMAGGTQITPLNDNVTIFCNIFYSQPLNITVMGITWFWKSLTFDKEVKVFEFWGDHQEAFRPGAIVSPWRLKSGDASLRLPGIQLEEAGEYRCEVVVTPYKAQGTVQLEVVASPAS : 16

input: Give a short answer stating reported EC50 improvement compared to ΔB7-H6 wt for ΔB7-H6_S2#2-SEED-PGLALA (bispecific antibody, part only; not given: SEED Fc chains and hu225 Fab, part only) chain, part: DLKVEMMAGGTQITPLNDNVTIFCNIFYSQPLNITSMGITWFWKSLTFDKEVKVFEFWDDHQEAFRPGAIVSPWRLKSGDASLRLPGIQLEEAGEYRCEVVVTPYKAQGTVQLEVVASPAS .
output: 5

input: Give a short answer stating reported EC50 improvement compared to ΔB7-H6 wt for ΔB7-H6_S3#26-SEED-PGLALA (bispecific antibody, part only; not given: SEED Fc chains and hu225 Fab, part only) chain, part: DLKVEMMAGGTQITPLNDNVTIFCNIFYSQPLNITTMGITWFWKSLTFDKEVKVFEFWDDHQEAFRPGAIVSPWRLKSGDASLRLPGIQLEEAGEYRCEVVVTPYKAQGTVQLEVVASPAS .
output: 38
